Collected growth inhibition values appear next to each entry.
- Method: NCI Yeast Anticancer Drug Screen. Data for the rad18 strain (AID 177)
- Condition context: S. cerevisiae rad18 mutant growth inhibition; at 33.0 µM; stronger effect = higher value
About 79,000 compounds went through this panel and 15% of them were active in at least one assay; those are over-represented in the sample as a whole.
Value type: growth inhibition (%)

>>> df
                              smiles_string         value_type  unit_annotation  test_value
0    O=C(/C=C/c1cc(Cl)cc(Cl)c1O)c1cccc(O)c1  growth inhibition                %          98
1  CCCC(=O)Oc1c(C)cc([N+](=O)[O-])cc1[N+](=O)[O-]  growth inhibition                %          99
2  COc1cc([C@@H]2c3cc4c(cc3[C@@H](Nc3ccc(NC(=O)c5cc([N+](=O)[O-])cn5C)cc3)[C@H]3COC(=O)[C@H]23)OCO4)cc(OC)c1O  growth inhibition                %          43
3             Brc1ccccc1-c1ncc(-c2ccccc2)o1  growth inhibition                %          75
4  Nc1cc(N)c(N=Nc2cccc3c(S(=O)(=O)O)cccc23)cc1N=Nc1cc([N+](=O)[O-])ccc1O  growth inhibition                %         -16
5                         S=c1sc2c(s1)SCCS2  growth inhibition                %         -15
6                CC(C)=NOC(=O)Nc1ccc(Cl)cc1  growth inhibition                %          10
7   O=C1NC(=O)c2ccc([N+](=O)[O-])c3cccc1c23  growth inhibition                %          93
8        CC1=C(SCc2ccccc2)C(=O)c2ccccc2C1=O  growth inhibition                %          79
9  COC1=C(N)C(=O)c2nc(-c3nc(C(=O)O)c(C)c(-c4ccc(OC)c(OC)c4O)c3N)ccc2C1=O  growth inhibition                %          97

###

Collected growth inhibition values appear next to each entry.
- Method: NCI Yeast Anticancer Drug Screen. Data for the wt2 strain (AID 169);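 also: 0% = growth of vehicle-treated yeast cultures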
- Condition context: S. cerevisiae wt2 strain growth inhibition; at 33.0 µM; stronger effect = higher value
The panel holds about 79,000 compounds, 15% with a hit somewhere; the sample as a whole holds those more often.
Value type: growth inhibition (%)

In [3]: df
Out[3]:
                                    compound         value_type  test_value
 0  Nc1nc2ccc(NCc3ccc(C(=O)NC(CCC(=O)O)C(=O)O)cc3)cc2c(=O)[nH]1 (stereo unspecified)  growth inhibition         -26
 1  O=C(O)C1CC(c2ccccc2)=NN1c1ccccc1 (stereo unspecified)  growth inhibition           0
 2  OC1(c2ccccc2)CCCc2ccc(Cl)cc21 (stereo unspecified)  growth inhibition           7
 3  COC(=O)CC1(O)C(/C=C/c2ccccc2)C(C(=O)OC)C(=O)C(C(=O)OC)C1C(=O)OC (stereo unspecified)  growth inhibition          -1
 4  C=C1CC(CCCl)(c2ccccc2)OC1=O (stereo unspecified)  growth inhibition          95
 5  COc1cc(C2SCC(=O)N2c2ccc(-c3ccc(-n4c(-c5ccccc5)nc5ccccc5c4=O)cc3)cc2)ccc1O (stereo unspecified)  growth inhibition          -2
 6  CCN(CC)Cc1cc(Nc2c3ccccc3nc3c2[nH]c2ccccc23)cc(CN(CC)CC)c1O  growth inhibition          -2
 7       O=[n+]1c2ccccc2n([O-])c2cc(Br)ccc21  growth inhibition         100
 8  COc1ccc(C(=O)c2ccccc2C(=O)c2ccccc2OC)cc1  growth inhibition          -2
 9  Cc1ccc(NC(c2ccccc2)c2ccc3cccnc3c2O)cc1 (stereo unspecified)  growth inhibition          -1
10  Oc1ccc2c(c1)C(O)CCCC2 (stereo unspecified)  growth inhibition           4
